protocolNotes: Solubility in saline.
Format: physicochemical
appliedConditions: read-out: S
Each entry below carries its recorded log10 solubility.
Record value = log10 of solubility given in µg/mL.

Example results:
CCOC(=O)CC1CCc2ccc(NC(=O)c3ccc(C(=N)N)cc3)cc2C1 (configuration not stated)	2.41
CCOC(=O)CC1COc2ccc(NC(=O)c3ccc(C(=N)N)cc3)cc2C1 (configuration not stated)	2.61
C#CCNC(=N)c1ccc(C(=O)Nc2ccc3c(c2)CC(CC(=O)OCC)CO3)cc1 (configuration not stated)	5.03
C#CCNC(=N)c1ccc(C(=O)Nc2ccc3c(c2)CC(CC(=O)OCC)CC3)cc1 (configuration not stated)	3.18

Now let's try a different one.
What value of log10 solubility has been recorded for this entry: CCOC(=O)CC1CCc2ccc(NC(=O)c3ccc(C(=N)NCc4ccco4)cc3)cc2C1 (configuration not stated)
3.03

Source: ChEMBL document CHEMBL1131137
